Target: T1, recombinant human EphB4 (rhEphB4) (human, UniProt P54760 16-539, limits assumed)
T1 construct: Bought protein; also called purified EphB4; immobilized EphB4
T1 sequence (looked up): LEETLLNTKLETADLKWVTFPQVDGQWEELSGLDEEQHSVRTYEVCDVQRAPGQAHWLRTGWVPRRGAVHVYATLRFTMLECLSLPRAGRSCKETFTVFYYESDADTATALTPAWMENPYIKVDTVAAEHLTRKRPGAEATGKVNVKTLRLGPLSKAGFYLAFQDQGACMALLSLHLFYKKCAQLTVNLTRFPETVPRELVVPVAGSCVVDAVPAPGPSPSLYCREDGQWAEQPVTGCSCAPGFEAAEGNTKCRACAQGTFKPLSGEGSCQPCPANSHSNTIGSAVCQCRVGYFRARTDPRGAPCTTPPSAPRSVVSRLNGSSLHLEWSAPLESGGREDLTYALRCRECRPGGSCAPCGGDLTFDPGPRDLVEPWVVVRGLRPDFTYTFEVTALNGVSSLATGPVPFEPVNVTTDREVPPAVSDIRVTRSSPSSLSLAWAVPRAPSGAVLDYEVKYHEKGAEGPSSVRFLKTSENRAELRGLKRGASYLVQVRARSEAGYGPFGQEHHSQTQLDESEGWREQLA
Experiment: SPR competition: BIDEN-AP (2-1000 nM) mixed with human EphB4 (30 nM), injected on EFNB2-Fc-coated CM5 chip
Square brackets hold non-standard residues; d marks the D form. Ends that are not written are not given here.
Assay Metric: pIC50
Reminder that pIC50 is minus the log10 of a molar concentration.

Task: Item TN[dY]LFSPNGPIARAW (Synthetic 15-mer made by solid phase synthesis on Rink resin; also called EphB4 agonist peptide) [BIDEN-AP (bi-directional ephrin agonist peptide), TN(dY)LFSPNGPIARAW] : provide pIC50
Output: 8.40
